B1: CPEB3 Ribozyme (parent)
chain: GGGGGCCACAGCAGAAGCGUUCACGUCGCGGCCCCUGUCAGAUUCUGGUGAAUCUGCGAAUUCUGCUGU

variants of: B1; assay: self-cleavage, relative activity (ratio to wild type); higher = more cleavage; co-transcriptional
self-cleavage listing for selected variants.
Measurement Name: self-cleavage

In [3]: df
Out[3]:
                              input_sequence   value
 0  GGGGGCCACAGCAGAAGCGUUCACGUCGCGGCCCCUGUCACAUUCUGGUGAAUCUGCGUAUUCUGCUGU   0.271
 1  GGAGGACACAGCAGAAGCGUUCACGUCGCGGCCCCUGUCAGAUUCUGGUGAAUCUGCGAAUUCUGCUGU  0.0773
 2  GGGGGCCACAGCAGAAGCGUUUACGUCGCGGCCCCUGUCAGAUUCUGGUGAAUCUGCGAAAUCUGCUGU    0.18
 3  GGGGGCCAUAGCAGAAGCGUUCACGUCGCGGCCCCUGUCAGAUUCUGGUGAAUCUGCGUAUUCUGCUGU   0.888
 4  GGGGGCCACAGCAGAAGCGUUCACGUCACGGCCCCUGUCAGAUUCUGGUCAAUCUGCGAAUUCUGCUGU   0.226
 5  GGGGGCCACAGCAGAAGCGUGCACGUCGCGGCCCCUGUCAGAUUCUGGUGAAUCUGCGAAUUUUGCUGU   0.434
 6  UGGGGCCACAGCAGAAGCGUUCACGUCGCGGCCCCUGUCUGAUUCUGGUGAAUCUGCGAAUUCUGCUGU  0.0879
 7  GGGGGCCACAGCGGAAGCGUUCACGUCGCGGCCCUUGUCAGAUUCUGGUGAAUCUGCGAAUUCUGCUGU   0.952
 8  GGGGGCCACAGCAGAAGCGUUCACGUCGCGGCCCCUGUAAGAUUCUGGUGAAUCUGCGAAUUCAGCUGU   0.467
 9  GGGGGCCACAGCAGAAGCGUUCACGACUCGGCCCCUGUCAGAUUCUGGUGAAUCUGCGAAUUCUGCUGU   0.211
10  GGGGGCGACAGCAGAAGCGUUCACGUCGCGGCCCCUGUCAGAUUCUGGUGAAUCUGCGUAUUCUGCUGU   0.167
